Reported viscosity by item:
- study conditions: 323.15 K; 101.33 kPa; Liquid; Cone and plate viscometry
Quick note: give the figure in mPa·s, leave out the unit.

// solved cases for viscosity follow
So what does the record say about viscosity for CCCCCCCCCCCCCC[P+](CCCCCC)(CCCCCC)CCCCCC.O=[N+]([O-])c1cn[n-]c1 [trihexyl(tetradecyl)phosphonium 4-nitropyrazolide] ?
167

Cool, now CCCCCCCCCCCCCC[P+](CCCCCC)(CCCCCC)CCCCCC.Cc1ncc([N+](=O)[O-])[n-]1 [trihexyl(tetradecyl)phosphonium 2-methyl-5-nitroimidazolide]
244

***
I am curious: what viscosity value has been reported for CCCCCCCCC[P+](CC)(CC)CC.O=[N+]([O-])c1cn[n-]c1 [triethylnonylphosphonium 4-nitropyrazolide] ?
77

Now the same for CCCCCCCCCCCCCC[P+](CCCCCC)(CCCCCC)CCCCCC.O=[N+]([O-])c1c[n-]cn1 [trihexyl(tetradecyl)phosphonium 4-nitroimidazolide]
180

Same again, this time with CCCCCCn1cc[n+](C)c1C.O=[N+]([O-])c1cn[n-]c1 [1-hexyl-2,3-dimethylimidazolium 4-nitropyrazolide]
147

Query CCCCCCn1cc[n+](C)c1.N#Cc1ccc[n-]1 [1-hexyl-3-methylimidazolium 2-cyanopyrrolide] next
55

Moving on to the next compound: CC(=O)[O-].CCCCCCn1cc[n+](C)c1 [3-hexyl-1-methylimidazolium acetate]
194

Likewise for CCC[n+]1ccn(C)c1C.O=[N+]([O-])c1cn[n-]c1 [1,2-dimethyl-3-propylimidazolium 4-nitropyrazolide] ?
106

Another compound to check: CCCC[P+](CC)(CC)CC.O=[N+]([O-])c1cn[n-]c1 [butyltriethylphosphonium 4-nitropyrazolide]
55
